System: Trypanosoma brucei brucei
Test: Antitrypanosomal activity against Trypanosoma brucei brucei Lister 427 strain blood stream forms incubated for 48 hrs by resazurin dye based fluorescence assay
Assay type: functional, organism-based
Conditions: Lister 427, 48 h
property: IC50 (nM)
Number in nM, nothing else.

// query Using the record for CC(C)C(=O)NCCc1csc(-c2ccccc2)n1 , report its IC50.
// result 5300

// query What value of IC50 has been recorded for this entry: O=C(NCCc1csc(-c2cccs2)n1)C1CCCC1
// result 2400

// query Please look up its IC50: O=C(NCCc1csc(-c2ccccc2)n1)c1cc(Br)co1
// result 2500

* * *

Tested on: Trypanosoma brucei brucei
Assay: Antitrypanosomal activity against Trypanosoma brucei brucei Lister 427 strain blood stream forms incubated for 48 hrs by resazurin dye based fluorescence assay
Assay type: functional, organism-based
Details: Lister 427, 48 h
pIC50: −log10 of the molar value.
Param threshold (6) applies to pIC50; output 1 when value >= threshold, -1 when value < threshold.

// query Reported pIC50 reaches at least 6 for CC(C)N(C)C(=O)NCCc1csc(-c2ccccc2)n1 ?
// result 1

// query Given the entry COc1ccccc1-c1nc(CCNC(=O)N2CCCCC2)cs1 , answer whether its pIC50 meets or surpasses 6.
// result 1

// query Determine whether measured pIC50 meets or exceeds 6 for O=C(NCCc1csc(-c2ccccc2)n1)C1CCOCC1
// result -1

// query Item Cc1cccc(C(=O)NCCc2csc(-c3ccccc3)n2)c1 with pIC50 of 6 or above?
// result -1

// query Hello, I need to know if O=C(NCCc1csc(-c2ccccn2)n1)C1CCCC1 has measured pIC50 not below 6. Thanks!
// result -1

// query Assess whether reported pIC50 for O=C(NCCc1csc(-c2ccccc2)n1)C1CC2C=CC1O2 (racemic) sits at 6 or higher.
// result -1

// query Determine whether this compound has pIC50 no lower than 6: CC(C)(C)C(=O)NCCc1csc(-c2ccccc2)n1
// result -1

// query Determine whether measured pIC50 meets or exceeds 6 for CC(C)OC(=O)NCCc1csc(-c2ccccc2)n1
// result 1

// query pIC50 >= 6 for Cc1ccccc1C(=O)NCCc1csc(-c2ccccc2)n1 ?
// result -1

* * *

Task for the reader: assign each of the following compounds its reported log10(IC50).
Test system: Trypanosoma cruzi
Assay: Antitrypanosomal activity against Trypanosoma cruzi Tulahuen strain trypomastigotes infected in rat H9c2 cells incubated for 72 hrs by DRAQ5 DNA dye based imaging analysis
Assay type: functional, organism-based
Details: H9c2, 72 h
Friendly reminder: values = log10 of IC50, unit µM.

// query Fill in: log10(IC50) of C[Si](C)(C)C#Cc1cccc(C(=O)NCCc2csc(-c3ccccc3)n2)c1 is ___
// result 0.30

// query For the compound O=C(NCCc1csc(-c2cccs2)n1)C1CCCC1 , what log10(IC50) is on record?
// result 1.00

// query Give its log10(IC50) value. Item: O=C(NCCc1csc(-c2ccccc2)n1)c1ccncc1
// result 1.60

// query Name the reported log10(IC50) value associated with the compound CC(C)N(C(=O)NCCc1csc(-c2ccccc2)n1)C(C)C
// result 1.51

// query I'd like to know its log10(IC50). The compound in question is O=C(NCCc1csc(-c2ccccc2)n1)c1cccs1
// result -0.40

// query Which value of log10(IC50) has been reported for N#Cc1ccccc1-c1nc(CCNC(=O)N2CCCCC2)cs1 in the records?
// result -0.10

// query For the compound O=C(NCCc1csc(-c2ccccn2)n1)c1ccccc1 , what log10(IC50) is on record?
// result 0.80

// query Any idea what its log10(IC50) is? The compound is Cc1ccccc1C(=O)NCCc1csc(-c2ccccc2)n1
// result 0.51

// query Returns the measured log10(IC50) for the input compound. Input: Cc1ccc(C(=O)NCCc2csc(-c3ccccc3)n2)cc1
// result 1.60

// query Requested field: log10(IC50). Item: O=C(NCCc1csc(-c2ccccc2)n1)N1CCCC1
// result -0.49

// query Which log10(IC50) reading was recorded for the compound O=C(NCCc1csc(-c2ccccc2)n1)c1cccnc1 ?
// result 0.40

// query Tell me the measured log10(IC50) of CC(C)NC(=O)NCCc1csc(-c2ccccc2)n1 , please.
// result 0.20

// query Consider the compound shown here: O=C(NCCc1csc(-c2ccc(F)cc2F)n1)N1CCCCC1 What is its recorded log10(IC50)?
// result -1.70

// query If you can, please state the reported log10(IC50) value of O=C(NCCc1csc(-c2ccccc2)n1)OCC1CC1 .
// result 0.51

// query log10(IC50) for O=C(NCCc1csc(-c2ccccc2F)n1)N1CCCCC1 ?
// result -2.00

// query Recorded log10(IC50) of N#Cc1cccc(C(=O)NCCc2csc(-c3ccccc3)n2)c1 , please.
// result -0.10

// query Name the recorded log10(IC50) for N#Cc1ccc(C(=O)NCCc2csc(-c3ccccc3)n2)cc1 .
// result -0.40

// query For the compound O=C(NCCc1csc(-c2ccccc2)n1)OC1CCCC1 , what log10(IC50) is on record?
// result -0.40

// query Which log10(IC50) is reported for this compound? COc1ccccc1C(=O)NCCc1csc(-c2ccccc2)n1
// result 1.00

// query Dear colleague, I am looking for the recorded log10(IC50) of the following compound: O=S(=O)(NCCc1csc(-c2ccccc2)n1)c1ccccc1
// result 1.30

// query Which log10(IC50) is listed for O=C(NCCc1csc(-c2ccccc2)n1)c1ccco1 ?
// result 0.30

// query Field request: log10(IC50) | item: O=C(NCCc1csc(-c2ccccc2)n1)c1ccc2ccccc2c1
// result 1.20

// query log10(IC50) value for entry O=C(NCCc1csc(-c2ccccc2)n1)c1cnccn1
// result 1.51

// query Entry under review: O=C(Cc1ccc2c(c1)OCO2)NCCc1csc(-c2ccccc2)n1 . Reported log10(IC50)?
// result 1.60

// query Look at this compound and give its reported log10(IC50). O=C(NCCc1csc(-c2ccccc2)n1)c1ccccc1O
// result 0.90

// query Value lookup for log10(IC50); key = O=C(NCCc1csc(-c2ccncc2)n1)c1ccccc1
// result 1.51

// query Fill in: log10(IC50) of CC(C)C(=O)NCCc1csc(-c2ccccc2)n1 is ___
// result 1.60

// query log10(IC50) lookup needed for CS(=O)(=O)c1cccc(C(=O)NCCc2csc(-c3ccccc3)n2)c1 , thanks.
// result 1.60

// query Using the record for O=C(NCCc1csc(-c2cccnc2)n1)C1CCCC1 , report its log10(IC50).
// result 1.30

// query Please give the measured log10(IC50) for this compound: O=C(NCCc1csc(-c2ccccc2)n1)N1CCOCC1
// result 0.51

// query For the compound shown here, COc1cccc(C(=O)NCCc2csc(-c3ccccc3)n2)c1 , give the reported log10(IC50).
// result 0.51

* * *

Record form. Attribute: selectivity ratio. Fill in for each entry.
Assay: Selectivity index, ratio of IC50 for cytotoxicity against rat H9c2 cells assessed as reduction in cell viability to IC50 for antitrypanosomal against Trypanosoma cruzi Tulahuen trypomastigotes infected in rat H9c2 cells
Type: toxicity, cell-based
Conditions: read-out: Ratio IC50

// query So what does the record say about selectivity ratio for N#Cc1ccccc1-c1nc(CCNC(=O)N2CCCCC2)cs1 ?
// result > 63

// query Return reported selectivity ratio; argument: Cc1ccccc1C(=O)NCCc1csc(-c2ccccc2)n1
// result > 15

// query Could you share which selectivity ratio value was measured for CCN(CC)C(=O)NCCc1csc(-c2ccc(F)cc2F)n1 ?
// result > 199

// query May I ask what selectivity ratio has been recorded for CC(C)OC(=O)NCCc1csc(-c2ccccc2)n1 ?
// result > 125

// query Need selectivity ratio, item O=C(NCCc1csc(-c2ccc(F)cc2F)n1)N1CCCCC1
// result > 3160

// query Requested read-out: selectivity ratio. Entry: O=C(NCCc1csc(-c2cccs2)n1)C1CCCC1
// result > 5

// query Endpoint output: selectivity ratio of O=C(NCCc1csc(-c2ccccc2)n1)OC1CCCC1 . Value?
// result > 125

// query For O=C(NCCc1csc(-c2cccnc2)n1)C1CCCC1 , what is its reported selectivity ratio?
// result > 2.5

// query Param item = CC(C)NC(=O)NCCc1csc(-c2ccccc2)n1 ; retrieve measured selectivity ratio.
// result > 31

// query I'd like to know its selectivity ratio. The compound in question is CC(C)(C)C(=O)NCCc1csc(-c2ccccc2)n1
// result > 7.9

// query // lookup selectivity ratio for N#Cc1ccc(C(=O)NCCc2csc(-c3ccccc3)n2)cc1
// result > 126

// query Please give the measured selectivity ratio for this compound: CC(C)C(=O)NCCc1csc(-c2ccccc2)n1
// result > 1.2

// query Using the record for O=C(NCCc1csc(-c2ccc(F)cc2)n1)N1CCCCC1 , report its selectivity ratio.
// result > 1580

// query For the compound shown here, O=C(NCCc1csc(-c2ccccc2F)n1)N1CCCCC1 , give the reported selectivity ratio.
// result > 3980

All figures here come from ChEMBL document CHEMBL4715758.
